Molecular target: Bet v 1.0101 (Betula pendula)
Construct: gene BETVIA
Sequence (P15494 2-160): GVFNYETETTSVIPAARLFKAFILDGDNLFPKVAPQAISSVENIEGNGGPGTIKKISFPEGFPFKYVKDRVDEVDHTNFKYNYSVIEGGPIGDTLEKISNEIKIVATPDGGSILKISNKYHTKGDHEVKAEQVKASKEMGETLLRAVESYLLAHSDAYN
Assay: 1H-15N HSQC NMR titration; PFG diffusion NMR; relaxation dispersion
Type: binding
Where a name gives a salt, the structure may show the parent alone.
assay_readout: pKd
Bear in mind: pKd is minus log10 of a mol/L concentration; give just that figure.

So what does the record say about pKd for CCCCC(CC)CCC(CC(C)C)OS(=O)(=O)O (stereo not shown) [STS, sodium tetradecyl sulfate] ?
6.00
